Target: protein:farnesyltransferase (Oryctolagus cuniculus, UniProt G1SFC8+G1T7D9)
Assay: Inhibition of protein:farnesyl transferase activity in rabbit reticulocyte lysate (Sepharose-bound peptide, 3H-FPP)
Settings: 80 pmol of pepAsep and pepBsep/5 µl beads, 0.7 µM ³H-FPP, 30 min at 37°C, read-out: IC₅₀-value

{"molecule": "CC(C)=CCCC(C)=CCCC(C)=CCP(=O)(O)OP(=O)(O)O [FPPA2, farnesyl phosphonophosphate]", "testTarget": "protein:farnesyltransferase (Oryctolagus cuniculus, UniProt G1SFC8+G1T7D9)", "IC50, nM": 290}
{"molecule": "CC(C)=CCC/C(C)=C/CC/C(C)=C/COCP(=O)(O)CP(=O)(O)O", "testTarget": "protein:farnesyltransferase (Oryctolagus cuniculus, UniProt G1SFC8+G1T7D9)", "IC50, nM": 5260}
